TARGET: CYP3A4 (Homo sapiens, UniProt P08684)
Sequence (P08684 whole entry): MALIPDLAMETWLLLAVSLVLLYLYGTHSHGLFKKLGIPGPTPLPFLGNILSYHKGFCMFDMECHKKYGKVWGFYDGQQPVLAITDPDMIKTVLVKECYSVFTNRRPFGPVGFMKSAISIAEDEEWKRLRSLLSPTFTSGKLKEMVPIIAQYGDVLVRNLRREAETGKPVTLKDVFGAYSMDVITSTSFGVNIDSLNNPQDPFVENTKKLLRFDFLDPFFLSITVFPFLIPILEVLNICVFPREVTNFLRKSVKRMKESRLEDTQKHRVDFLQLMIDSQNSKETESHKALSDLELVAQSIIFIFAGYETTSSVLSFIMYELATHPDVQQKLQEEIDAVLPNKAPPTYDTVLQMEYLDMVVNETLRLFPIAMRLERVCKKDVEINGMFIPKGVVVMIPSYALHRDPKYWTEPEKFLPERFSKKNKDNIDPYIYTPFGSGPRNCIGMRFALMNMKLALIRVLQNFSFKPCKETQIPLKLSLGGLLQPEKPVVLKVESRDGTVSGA
MEASUREMENT_DESCRIPTION: Inhibition of CYP3A4 at 10 uM
Type: ADME
MEASURED_ATTRIBUTE: inhibition at 10 µM (%)

compound=O=C(N[C@@H]1CC[C@@]2(O)[C@H]3Cc4ccc(O)c5c4[C@@]2(CCN3CC2CC2)[C@H]1O5)c1ccc(Cl)cc1 target="CYP3A4 (Homo sapiens, UniProt P08684)" measured_value=30.8
compound=COc1cccc(C(=O)N[C@@H]2CC[C@@]3(O)[C@H]4Cc5ccc(O)c6c5[C@@]3(CCN4CC3CC3)[C@H]2O6)c1 target="CYP3A4 (Homo sapiens, UniProt P08684)" measured_value=44.9
compound="CN(C)c1cccc(C(=O)NC2CC[C@@]3(O)[C@H]4Cc5ccc(O)c6c5[C@@]3(CCN4CC3CC3)[C@H]2O6)c1 (some centres undefined)" target="CYP3A4 (Homo sapiens, UniProt P08684)" measured_value=39.9
compound=O=C(N[C@@H]1CC[C@@]2(O)[C@H]3Cc4ccc(O)c5c4[C@@]2(CCN3CC2CC2)[C@H]1O5)c1ccc(Cl)c(Cl)c1 target="CYP3A4 (Homo sapiens, UniProt P08684)" measured_value=35.5

---

Reported Ratio Ki is given for each of the following molecules.
Species: Homo sapiens
MEASUREMENT_DESCRIPTION: Selectivity ratio of Ki for human mu opioid receptor over Ki for human kappa opioid receptor
MEASURED_ATTRIBUTE: Ratio Ki

molecule=COc1cccc(CC(=O)N[C@@H]2CC[C@@]3(O)[C@H]4Cc5ccc(O)c6c5[C@@]3(CCN4CC3CC3)[C@H]2O6)c1 measured_value=3.5
molecule=O=C(N[C@@H]1CC[C@@]2(O)[C@H]3Cc4ccc(O)c5c4[C@@]2(CCN3CC2CC2)[C@H]1O5)c1cccc(O)c1 measured_value=0.5
molecule=Nc1ccc(C(=O)N[C@@H]2CC[C@@]3(O)[C@H]4Cc5ccc(O)c6c5[C@@]3(CCN4CC3CC3)[C@H]2O6)cc1 measured_value=0.93
molecule=COc1cc(OC)cc(C(=O)N[C@H]2CC[C@@]3(O)[C@H]4Cc5ccc(O)c6c5[C@@]3(CCN4CC3CC3)[C@H]2O6)c1 measured_value=13
molecule=O=C(Cc1ccccc1)N[C@@H]1CC[C@@]2(O)[C@H]3Cc4ccc(O)c5c4[C@@]2(CCN3CC2CC2)[C@H]1O5 measured_value=2.7
molecule="CN(C)c1cccc(C(=O)NC2CC[C@@]3(O)[C@H]4Cc5ccc(O)c6c5[C@@]3(CCN4CC3CC3)[C@H]2O6)c1 (some centres not stated)" measured_value=1.42
molecule=O=C(N[C@@H]1CC[C@@]2(O)[C@H]3Cc4ccc(O)c5c4[C@@]2(CCN3CC2CC2)[C@H]1O5)c1ccccn1 measured_value=1.3

---

TARGET: CYP2C19 (Homo sapiens, UniProt P33261)
Sequence (P33261 whole entry): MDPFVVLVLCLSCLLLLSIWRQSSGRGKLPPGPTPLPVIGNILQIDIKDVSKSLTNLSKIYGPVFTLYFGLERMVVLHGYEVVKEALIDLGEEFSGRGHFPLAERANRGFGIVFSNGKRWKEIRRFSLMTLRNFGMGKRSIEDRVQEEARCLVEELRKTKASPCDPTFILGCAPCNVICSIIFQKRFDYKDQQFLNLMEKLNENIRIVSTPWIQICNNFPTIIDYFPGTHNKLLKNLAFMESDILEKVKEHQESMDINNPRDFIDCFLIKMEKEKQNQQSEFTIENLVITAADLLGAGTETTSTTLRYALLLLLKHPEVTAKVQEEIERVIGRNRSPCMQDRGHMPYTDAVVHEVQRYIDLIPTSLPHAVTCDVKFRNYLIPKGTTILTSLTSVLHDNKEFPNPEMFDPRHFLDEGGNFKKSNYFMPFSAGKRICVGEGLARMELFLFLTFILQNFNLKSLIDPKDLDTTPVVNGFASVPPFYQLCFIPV
MEASUREMENT_DESCRIPTION: Inhibition of CYP2C19 at 10 uM
Assay type: ADME
MEASURED_ATTRIBUTE: inhibition at 10 µM (%)

compound=O=C(N[C@@H]1CC[C@@]2(O)[C@H]3Cc4ccc(O)c5c4[C@@]2(CCN3CC2CC2)[C@H]1O5)c1ccc(Cl)c(Cl)c1 measured_attribute="inhibition at 10 µM" measured_value=48.3
compound=COc1cccc(C(=O)N[C@@H]2CC[C@@]3(O)[C@H]4Cc5ccc(O)c6c5[C@@]3(CCN4CC3CC3)[C@H]2O6)c1 measured_attribute="inhibition at 10 µM" measured_value=47.1
compound="CN(C)c1cccc(C(=O)NC2CC[C@@]3(O)[C@H]4Cc5ccc(O)c6c5[C@@]3(CCN4CC3CC3)[C@H]2O6)c1 (some centres undefined)" measured_attribute="inhibition at 10 µM" measured_value=70
compound=O=C(N[C@@H]1CC[C@@]2(O)[C@H]3Cc4ccc(O)c5c4[C@@]2(CCN3CC2CC2)[C@H]1O5)c1ccc(Cl)cc1 measured_attribute="inhibition at 10 µM" measured_value=39.1

---

Organism: Homo sapiens
MEASUREMENT_DESCRIPTION: Selectivity ratio of Ki for human mu opioid receptor over Ki for human kappa opioid receptor
Reported Ratio Ki is given for each of the following molecules.
MEASURED_ATTRIBUTE: Ratio Ki

record_smiles=COc1cc(OC)cc(C(=O)N[C@@H]2CC[C@@]3(O)[C@H]4Cc5ccc(O)c6c5[C@@]3(CCN4CC3CC3)[C@H]2O6)c1 measured_attribute="Ratio Ki" measured_value=1.1
record_smiles=O=C(C[C@@H]1O[C@H](CO)[C@@H](O)[C@H](O)[C@H]1O)N[C@@H]1CC[C@@]2(O)[C@H]3Cc4ccc(O)c5c4[C@@]2(CCN3CC2CC2)[C@H]1O5 measured_attribute="Ratio Ki" measured_value=7
record_smiles=O=C(C[C@@H]1O[C@H](COCc2ccccc2)[C@@H](OCc2ccccc2)[C@H](OCc2ccccc2)[C@H]1OCc1ccccc1)N[C@H]1CC[C@@]2(O)[C@H]3Cc4ccc(O)c5c4[C@@]2(CCN3CC2CC2)[C@H]1O5 measured_attribute="Ratio Ki" measured_value=0.34
record_smiles=O=C(C[C@@H]1O[C@H](CO)[C@@H](O)[C@H](O)[C@H]1O)N[C@H]1CC[C@@]2(O)[C@H]3Cc4ccc(O)c5c4[C@@]2(CCN3CC2CC2)[C@H]1O5 measured_attribute="Ratio Ki" measured_value=3
record_smiles=O=C(Cc1cccs1)N[C@@H]1CC[C@@]2(O)[C@H]3Cc4ccc(O)c5c4[C@@]2(CCN3CC2CC2)[C@H]1O5 measured_attribute="Ratio Ki" measured_value=2.8
record_smiles=O=C(CCc1ccccc1)N[C@@H]1CC[C@@]2(O)[C@H]3Cc4ccc(O)c5c4[C@@]2(CCN3CC2CC2)[C@H]1O5 measured_attribute="Ratio Ki" measured_value=0.8
record_smiles=COc1cccc(C(=O)N[C@H]2CC[C@@]3(O)[C@H]4Cc5ccc(O)c6c5[C@@]3(CCN4CC3CC3)[C@H]2O6)c1 measured_attribute="Ratio Ki" measured_value=4.5
record_smiles=CC(C)(C)OC(=O)Nc1ccc(C(=O)N[C@@H]2CC[C@@]3(O)[C@H]4Cc5ccc(O)c6c5[C@@]3(CCN4CC3CC3)[C@H]2O6)cc1 measured_attribute="Ratio Ki" measured_value=0.86
record_smiles=O=C(O)c1ccc(C(=O)N[C@@H]2CC[C@@]3(O)[C@H]4Cc5ccc(O)c6c5[C@@]3(CCN4CC3CC3)[C@H]2O6)cc1 measured_attribute="Ratio Ki" measured_value=14.9
record_smiles=COc1ccc(CC(=O)N[C@@H]2CC[C@@]3(O)[C@H]4Cc5ccc(O)c6c5[C@@]3(CCN4CC3CC3)[C@H]2O6)cc1 measured_attribute="Ratio Ki" measured_value=1.6
record_smiles=O=C(Cc1cccs1)N[C@H]1CC[C@@]2(O)[C@H]3Cc4ccc(O)c5c4[C@@]2(CCN3CC2CC2)[C@H]1O5 measured_attribute="Ratio Ki" measured_value=7.2
record_smiles=COc1cccc(C(=O)N[C@@H]2CC[C@@]3(O)[C@H]4Cc5ccc(O)c6c5[C@@]3(CCN4CC3CC3)[C@H]2O6)c1 measured_attribute="Ratio Ki" measured_value=2
record_smiles=O=C(/C=C/Cc1ccccc1)N[C@@H]1CC[C@@]2(O)[C@H]3Cc4ccc(O)c5c4[C@@]2(CCN3CC2CC2)[C@H]1O5 measured_attribute="Ratio Ki" measured_value=20
record_smiles=COC(=O)c1ccc(C(=O)N[C@@H]2CC[C@@]3(O)[C@H]4Cc5ccc(O)c6c5[C@@]3(CCN4CC3CC3)[C@H]2O6)cc1 measured_attribute="Ratio Ki" measured_value=3.5

---

pKi: −log10 of the molar value.
Here's a batch of compounds along with measured pKi for Mu-type opioid receptor (Homo sapiens, UniProt P35372).
MEASURED_ATTRIBUTE: pKi

record_smiles=O=C(N[C@H]1CC[C@@]2(O)[C@H]3Cc4ccc(O)c5c4[C@@]2(CCN3CC2CC2)[C@H]1O5)c1ccccc1 target="Mu-type opioid receptor (Homo sapiens, UniProt P35372)" measured_value=9.68
record_smiles=O=C(Cc1cccs1)N[C@@H]1CC[C@@]2(O)[C@H]3Cc4ccc(O)c5c4[C@@]2(CCN3CC2CC2)[C@H]1O5 target="Mu-type opioid receptor (Homo sapiens, UniProt P35372)" measured_value=9.37
record_smiles=O=C(N[C@@H]1CC[C@@]2(O)[C@H]3Cc4ccc(O)c5c4[C@@]2(CCN3CC2CC2)[C@H]1O5)c1cccc([N+](=O)[O-])c1 target="Mu-type opioid receptor (Homo sapiens, UniProt P35372)" measured_value=9.72
record_smiles=COc1cccc(C(=O)N[C@H]2CC[C@@]3(O)[C@H]4Cc5ccc(O)c6c5[C@@]3(CCN4CC3CC3)[C@H]2O6)c1 target="Mu-type opioid receptor (Homo sapiens, UniProt P35372)" measured_value=9.80
record_smiles=COc1cccc(C(=O)N[C@@H]2CC[C@@]3(O)[C@H]4Cc5ccc(O)c6c5[C@@]3(CCN4CC3CC3)[C@H]2O6)c1 target="Mu-type opioid receptor (Homo sapiens, UniProt P35372)" measured_value=9.92
record_smiles=O=C(N[C@@H]1CC[C@@]2(O)[C@H]3Cc4ccc(O)c5c4[C@@]2(CCN3CC2CC2)[C@H]1O5)c1ccccn1 target="Mu-type opioid receptor (Homo sapiens, UniProt P35372)" measured_value=9.51
record_smiles=O=C(C[C@@H]1O[C@H](COCc2ccccc2)[C@@H](OCc2ccccc2)[C@H](OCc2ccccc2)[C@H]1OCc1ccccc1)N[C@H]1CC[C@@]2(O)[C@H]3Cc4ccc(O)c5c4[C@@]2(CCN3CC2CC2)[C@H]1O5 target="Mu-type opioid receptor (Homo sapiens, UniProt P35372)" measured_value=8.83
record_smiles=Nc1ccc(C(=O)N[C@@H]2CC[C@@]3(O)[C@H]4Cc5ccc(O)c6c5[C@@]3(CCN4CC3CC3)[C@H]2O6)cc1 target="Mu-type opioid receptor (Homo sapiens, UniProt P35372)" measured_value=9.37
record_smiles=O=C(C[C@@H]1O[C@H](CO)[C@@H](O)[C@H](O)[C@H]1O)N[C@H]1CC[C@@]2(O)[C@H]3Cc4ccc(O)c5c4[C@@]2(CCN3CC2CC2)[C@H]1O5 target="Mu-type opioid receptor (Homo sapiens, UniProt P35372)" measured_value=9.17
record_smiles=COc1cccc(CC(=O)N[C@@H]2CC[C@@]3(O)[C@H]4Cc5ccc(O)c6c5[C@@]3(CCN4CC3CC3)[C@H]2O6)c1 target="Mu-type opioid receptor (Homo sapiens, UniProt P35372)" measured_value=9.89
record_smiles=CC(C)(C)OC(=O)Nc1ccc(C(=O)N[C@@H]2CC[C@@]3(O)[C@H]4Cc5ccc(O)c6c5[C@@]3(CCN4CC3CC3)[C@H]2O6)cc1 target="Mu-type opioid receptor (Homo sapiens, UniProt P35372)" measured_value=9.04
record_smiles=O=C(/C=C/Cc1ccccc1)N[C@@H]1CC[C@@]2(O)[C@H]3Cc4ccc(O)c5c4[C@@]2(CCN3CC2CC2)[C@H]1O5 target="Mu-type opioid receptor (Homo sapiens, UniProt P35372)" measured_value=10.22
record_smiles=COc1ccc(CC(=O)N[C@@H]2CC[C@@]3(O)[C@H]4Cc5ccc(O)c6c5[C@@]3(CCN4CC3CC3)[C@H]2O6)cc1 target="Mu-type opioid receptor (Homo sapiens, UniProt P35372)" measured_value=9.57
